Data provenance is ChEMBL document CHEMBL1149662.

- System Name: UniProt P32245
- Procedure Details: Displacement of [125I]NDP-MSH from human recombinant MC4 receptor expressed in Sf9 cells
label 1 if Ki is below 4 µM. label 0 if not; exact matches included in label 0.

{"Compound": "NC1CCC(CC2CCC(N(Cc3ccccc3F)C(=O)CCCc3c(Cc4ccc(O)cc4)[nH]c4ccccc34)CC2)CC1 (configuration not stated)", "Label": "label 1"}
{"Compound": "NC1CCC(CC2CCC(N(Cc3c(F)cccc3F)C(=O)CCCc3c[nH]c4ccccc34)CC2)CC1 (configuration not stated)", "Label": "label 1"}
{"Compound": "COc1cc(Br)c(CN(C(=O)CCCc2c(Cc3ccc(O)cc3)[nH]c3ccccc23)[C@H]2CC[C@@H](C[C@H]3CC[C@H](N)CC3)CC2)cc1OC", "Label": "label 0"}
{"Compound": "COC(=O)c1ccc(CN(C(=O)CCCc2c(Cc3ccc(O)cc3)[nH]c3ccccc23)C2CCC(CC3CCC(N)CC3)CC2)cc1 (configuration not stated)", "Label": "label 1"}
{"Compound": "NCCCCCN(Cc1ccc2ccccc2c1)C(=O)CCc1c[nH]c2ccccc12", "Label": "label 0"}

Please let me know if NCCCN(Cc1ccc2ccccc2c1)C(=O)Cc1ccc2ccccc2c1 shows Ki below 4 µM. label 0

Follow-up item: COc1cc(Br)c(/C=C/CN(C(=O)CCCc2c[nH]c3ccccc23)C2CCC(CC3CCC(N)CC3)CC2)cc1OC (configuration not stated) label 1

Follow-up item: NC1CCC(CC2CCC(N(C/C(Cl)=C/c3ccccc3)C(=O)COc3ccc4ccccc4c3)CC2)CC1 (stereo in doubt; form 4) label 0

Follow-up item: NC1CCCC(NC(=O)NC2CCCC(N(C/C(Cl)=C/c3ccccc3)C(=O)CCCc3c[nH]c4ccccc34)C2)C1 (configuration not stated) label 0

Follow-up item: CC(C)N(CCCCN)C(=O)c1c[nH]c2ccccc12 label 0

###

- System Name: Melanocortin receptor 4 (Homo sapiens)
- Sequence (P32245 whole entry): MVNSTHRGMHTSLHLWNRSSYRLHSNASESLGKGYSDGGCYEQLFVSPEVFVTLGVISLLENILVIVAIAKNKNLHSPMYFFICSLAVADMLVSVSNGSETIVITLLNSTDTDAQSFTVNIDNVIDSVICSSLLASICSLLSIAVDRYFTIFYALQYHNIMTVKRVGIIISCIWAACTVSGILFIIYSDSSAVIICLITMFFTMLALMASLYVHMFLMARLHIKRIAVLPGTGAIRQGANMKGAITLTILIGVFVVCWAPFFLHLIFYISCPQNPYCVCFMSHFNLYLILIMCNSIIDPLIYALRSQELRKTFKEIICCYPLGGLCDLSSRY
- Procedure Details: Displacement of [125I]NDP-MSH from human recombinant MC4 receptor expressed in Sf9 cells
pKi: −log10 of the molar value.
Threshold rule: pKi greater than or equal to 5 is Satisfied; below that, Not satisfied.

{"Molecule": "NC1CCC(CC2CCC(N(C/C(Cl)=C/c3ccccc3)C(=O)COc3ccc4ccccc4c3)CC2)CC1 (stereo in doubt; form 8)", "Label": "Satisfied"}
{"Molecule": "C/C(=C\\c1ccccc1)CN(CCCN)C(=O)C(=O)c1c[nH]c2ccccc12", "Label": "Satisfied"}
{"Molecule": "NCCCCN(Cc1ccccc1)C(=O)CCCc1c(Cc2ccc(O)cc2)[nH]c2ccccc12", "Label": "Satisfied"}

Okay, next one:
Reported pKi at or above 5? NCCCCCN(C(=O)CCCc1c[nH]c2ccccc12)C1C2CC3CC(C2)CC1C3 (centres undefined) Not satisfied

###

- System Name: Melanocyte-stimulating hormone receptor (Mus musculus)
- Sequence (Q01727 whole entry): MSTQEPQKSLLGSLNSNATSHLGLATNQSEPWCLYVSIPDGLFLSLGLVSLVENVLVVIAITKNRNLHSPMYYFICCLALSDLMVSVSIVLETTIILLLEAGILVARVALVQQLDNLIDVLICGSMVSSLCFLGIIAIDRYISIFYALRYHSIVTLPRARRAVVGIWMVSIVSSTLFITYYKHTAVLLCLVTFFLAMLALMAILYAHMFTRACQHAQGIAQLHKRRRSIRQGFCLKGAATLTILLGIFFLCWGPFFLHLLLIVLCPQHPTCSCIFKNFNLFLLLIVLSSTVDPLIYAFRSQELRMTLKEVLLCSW
- Procedure Details: Displacement of [125I]NDP-MSH from MC1 receptor in mouse B16 cells
- Format: cell-based
Parameter: Ki
Kindly format the answer as number then unit.

Check out these entries, answers already filled in.
{"Compound": "NCCCCCCCN(C/C(Cl)=C/c1ccccc1)C(=O)CCCc1c[nH]c2ccccc12", "Parameter": "Ki", "Result": "5000 nM"}
{"Compound": "NCC1CCCC(CN(C/C(Cl)=C/c2ccccc2)C(=O)CCCc2c[nH]c3ccccc23)C1 (stereo not given)", "Parameter": "Ki", "Result": "1500 nM"}
{"Compound": "NCCCCCN(Cc1ccccc1)C(=O)[C@@H](N)Cc1ccc2ccccc2c1", "Parameter": "Ki", "Result": "10000 nM"}
{"Compound": "NCCCN(C/C(Cl)=C/c1ccccc1)C(=O)CCCc1c[nH]c2ccccc12", "Parameter": "Ki", "Result": "6100 nM"}
{"Compound": "COc1ccc(CN(C(=O)CCCc2c[nH]c3ccccc23)C2CCC(CC3CCC(N)CC3)CC2)cc1Br (stereo not given)", "Parameter": "Ki", "Result": "2900 nM"}

Which Ki reading was recorded for the compound Cc1ccccc1CN(C(=O)CCCc1c[nH]c2ccccc12)C1CCC(CC2CCC(N)CC2)CC1 (stereo not given) ? 1200 nM

Follow-up item: NCCCN(C/C=C/c1ccccc1)C(=O)CCc1c[nH]c2ccccc12 21000 nM

Follow-up item: NCCCCCCN(Cc1ccccc1)C(=O)CCCc1c(Cc2ccc(O)cc2)[nH]c2ccccc12 2300 nM

Follow-up item: NCCN(C(=O)Cc1ccc2ccccc2c1)C1CCc2ccccc2C1 (stereo not given) 1600 nM

Follow-up item: NC1CCC(CC2CCC(N(C/C(Cl)=C/c3ccccc3)C(=O)COc3ccc4ccccc4c3)CC2)CC1 (stereo in doubt; form 4) 960 nM

Follow-up item: N=C(N)NCCN(Cc1ccc2ccccc2c1)C(=O)Cc1c[nH]c2ccccc12 19000 nM

Follow-up item: NC1CCC(CC2CCC(N(C/C(Cl)=C/c3ccccc3)C(=O)COc3ccc4ccccc4c3)CC2)CC1 (stereo in doubt; form 2) 1500 nM

Follow-up item: NC1CCC(CC2CCC(N(Cc3ccccc3)C(=O)CCCc3c[nH]c4ccccc34)CC2)CC1 (stereo in doubt; 10d-40-8) 420 nM

Follow-up item: CC1CC(CC2CCC(N(Cc3ccccc3)C(=O)CCCc3c[nH]c4ccccc34)C(C)C2)CCC1N (stereo in doubt; form 2) 870 nM
